The measurements presented in this section are drawn from the kinase profiling compilation of Christmann-Franck et al. (2016).

- tested-on: UniProtKB Q96KB5
- Sequence (Q96KB5 whole entry, looked up): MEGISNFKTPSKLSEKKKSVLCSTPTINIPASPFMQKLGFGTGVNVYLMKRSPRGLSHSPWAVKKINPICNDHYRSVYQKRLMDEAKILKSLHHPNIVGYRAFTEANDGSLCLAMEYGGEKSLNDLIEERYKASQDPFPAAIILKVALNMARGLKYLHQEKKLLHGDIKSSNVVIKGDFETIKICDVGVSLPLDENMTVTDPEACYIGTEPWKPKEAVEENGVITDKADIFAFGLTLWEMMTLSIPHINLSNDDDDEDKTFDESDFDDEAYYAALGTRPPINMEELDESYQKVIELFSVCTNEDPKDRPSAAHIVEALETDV
- protocol-text: radiometric filter-binding kinase assay, Kinase HotSpot
- details: compound 0.5 µM; ATP 10 µM
Exercise: state measured residual activity for each of the molecules provided.
The response must be a number in % with no trailing unit.

input: What is its residual activity for UniProtKB Q96KB5? Entry: N#C/C(=C\c1ccc(O)c(O)c1)C(=O)NCc1ccccc1
output: 84.2

input: What is its residual activity for UniProtKB Q96KB5? Entry: C[C@@H]1CCN(C(=O)CC#N)C[C@@H]1N(C)c1ncnc2[nH]ccc12
output: 102

input: What is its residual activity for UniProtKB Q96KB5? Entry: Cc1nc(-c2ccccc2)c(-c2ccncc2)o1
output: 110

###

- tested-on: PTK6 (human)
- protocol-text: radiometric filter-binding kinase assay, Kinase HotSpot
- details: compound 0.5 µM; ATP 10 µM
Classify as follows. Reported residual activity greater than or equal to 90%: t. Reported residual activity below: f.

input: hey, is residual activity for this one >= 90%? CN(C)CCCn1cc(C2=C(c3c[nH]c4ccccc34)C(=O)NC2=O)c2ccccc21
output: t

input: hey, is residual activity for this one >= 90%? Ic1cccc(CSc2nnc(-c3ccncc3)o2)c1
output: t

input: hey, is residual activity for this one >= 90%? C[C@@H]1CCN(C(=O)CC#N)C[C@@H]1N(C)c1ncnc2[nH]ccc12
output: t

input: hey, is residual activity for this one >= 90%? CN(C)c1ccc(/C=C2\C(=O)Nc3ccccc32)cc1
output: t

input: hey, is residual activity for this one >= 90%? COc1cc(Nc2c(C#N)cnc3cc(OCCCN4CCN(C)CC4)c(OC)cc23)c(Cl)cc1Cl
output: t

input: hey, is residual activity for this one >= 90%? Cn1c2ccccc2c2c3c(c4c5ccccc5n(CCC#N)c4c21)CNC3=O
output: f

input: hey, is residual activity for this one >= 90%? COc1cc2ncnc(Nc3ccc(OCc4ccccc4)cc3)c2cc1OC
output: f

input: hey, is residual activity for this one >= 90%? CS(=O)(=O)CCNCc1ccc(-c2ccc3ncnc(Nc4ccc(OCc5cccc(F)c5)c(Cl)c4)c3c2)o1
output: t

input: hey, is residual activity for this one >= 90%? COc1cc2ncnc(Nc3ccc(Oc4ccccc4)cc3)c2cc1OC
output: f

input: hey, is residual activity for this one >= 90%? c1ccc2c(-c3ccncc3)c[nH]c2c1
output: f

###

- tested-on: MAPK10 (human)
- protocol-text: radiometric filter-binding kinase assay, Kinase HotSpot
- details: compound 0.5 µM; ATP 10 µM
Exercise: state measured residual activity for each of the molecules provided.
The response must be a number in % with no trailing unit.

input: Name the reported residual activity value associated with the molecule O=C1C(Cl)=C(N2C(=O)CCC2=O)C(=O)c2ccccc21
output: 93.6

input: Name the reported residual activity value associated with the molecule CC(C)(C)c1cc(C=C(C#N)C#N)cc(Br)c1O
output: 92.5

input: Name the reported residual activity value associated with the molecule CS(=O)(=O)CCNCc1ccc(-c2ccc3ncnc(Nc4ccc(OCc5cccc(F)c5)c(Cl)c4)c3c2)o1
output: 100

input: Name the reported residual activity value associated with the molecule Ic1cccc(CSc2nnc(-c3ccncc3)o2)c1
output: 95.7

input: Name the reported residual activity value associated with the molecule Cc1cccc(-c2nc(C(C)(C)C)[nH]c2-c2ccc3c(c2)OCO3)n1
output: 96

input: Name the reported residual activity value associated with the molecule COc1ccc(C(=O)Nc2sc3c(c2C(N)=O)CCCC3)cc1OC
output: 84.5

input: Name the reported residual activity value associated with the molecule COc1cc2ncnc(Nc3ccc(Oc4ccccc4)cc3)c2cc1OC
output: 103

input: Name the reported residual activity value associated with the molecule O=C(c1cc2cc(O)ccc2[nH]1)c1cc2cc(O)ccc2[nH]1
output: 91.6

###

- tested-on: CDK5 CDK5R1 p35 (human) (UniProt Q00535+Q15078)
- protocol-text: radiometric filter-binding kinase assay, Kinase HotSpot
- details: compound 0.5 µM; ATP 10 µM
measured-metric: residual activity (%)
The response must be a number in % with no trailing unit.

input: Name the reported residual activity value associated with the molecule C[C@@H]1CCN(C(=O)CC#N)C[C@@H]1N(C)c1ncnc2[nH]ccc12
output: 99.5

input: Name the reported residual activity value associated with the molecule COc1cc2ncnc(Nc3ccc(Oc4ccccc4)cc3)c2cc1OC
output: 115

input: Name the reported residual activity value associated with the molecule COc1ccc(Cl)cc1NC(=O)Nc1cc(C)nc2ccccc12
output: 102

input: Name the reported residual activity value associated with the molecule COc1cc(Nc2c(C#N)cnc3cc(OCCCN4CCN(C)CC4)c(OC)cc23)c(Cl)cc1Cl
output: 98.3

input: Name the reported residual activity value associated with the molecule CN(C)CCCn1cc(C2=C(c3c[nH]c4ccccc34)C(=O)NC2=O)c2ccccc21
output: 90

input: Name the reported residual activity value associated with the molecule NC(=O)c1cccc(-c2cc(Nc3ccc(OC(F)(F)F)cc3)ncn2)c1
output: 96

input: Name the reported residual activity value associated with the molecule Cc1cn(-c2cc(NC(=O)c3ccc(C)c(Nc4nccc(-c5cccnc5)n4)c3)cc(C(F)(F)F)c2)cn1
output: 105

input: Name the reported residual activity value associated with the molecule COc1ccc(S(=O)(=O)N(CCO)c2ccccc2CN(C)C/C=C/c2ccc(Cl)cc2)cc1
output: 99.9

input: Name the reported residual activity value associated with the molecule CCCCc1c(-c2ccc(OC)cc2)[nH]c2nccnc12
output: 48.3

input: Name the reported residual activity value associated with the molecule O=C1Nc2ccc(Br)cc2/C1=C\c1cc2c([nH]1)CCCC2
output: 84.6

input: Name the reported residual activity value associated with the molecule Ic1cccc(CSc2nnc(-c3ccncc3)o2)c1
output: 102

###

Exercise: state measured residual activity for each of the compounds provided.
- tested-on: SGK2 (human) (UniProt Q9HBY8)
- Sequence (Q9HBY8 whole entry, looked up): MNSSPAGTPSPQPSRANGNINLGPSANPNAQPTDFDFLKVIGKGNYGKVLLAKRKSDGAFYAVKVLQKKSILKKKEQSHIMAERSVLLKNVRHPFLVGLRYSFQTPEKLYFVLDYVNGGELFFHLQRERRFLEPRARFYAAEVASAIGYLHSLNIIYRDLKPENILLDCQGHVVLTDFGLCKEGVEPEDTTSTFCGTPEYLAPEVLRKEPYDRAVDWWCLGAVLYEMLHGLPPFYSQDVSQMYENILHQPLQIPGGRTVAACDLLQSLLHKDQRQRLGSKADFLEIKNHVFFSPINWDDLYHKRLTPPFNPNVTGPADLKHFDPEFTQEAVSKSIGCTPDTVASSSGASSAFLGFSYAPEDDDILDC
- protocol-text: radiometric filter-binding kinase assay, Kinase HotSpot
- details: compound 0.5 µM; ATP 10 µM

input: What is its residual activity for SGK2 (human) (UniProt Q9HBY8)? Entry: CO[C@@H]1[C@H](N(C)C(=O)c2ccccc2)C[C@H]2O[C@]1(C)n1c3ccccc3c3c4c(c5c6ccccc6n2c5c31)C(=O)NC4
output: 99%

input: What is its residual activity for SGK2 (human) (UniProt Q9HBY8)? Entry: CN(C)CCCn1cc(C2=C(c3c[nH]c4ccccc34)C(=O)NC2=O)c2ccccc21
output: 74.4%

input: What is its residual activity for SGK2 (human) (UniProt Q9HBY8)? Entry: Cc1nc(-c2ccccc2)c(-c2ccncc2)o1
output: 105%

input: What is its residual activity for SGK2 (human) (UniProt Q9HBY8)? Entry: Cc1cncc2cccc(S(=O)(=O)N3CCCN(C(=O)CN)C[C@H]3C)c12
output: 102%

input: What is its residual activity for SGK2 (human) (UniProt Q9HBY8)? Entry: CN(C)S(=O)(=O)c1ccc2c(c1)/C(=C/c1cc3c([nH]1)CCCC3)C(=O)N2
output: 101%

input: What is its residual activity for SGK2 (human) (UniProt Q9HBY8)? Entry: COc1cc2ncnc(Nc3ccc(Oc4ccccc4)cc3)c2cc1OC
output: 113%

input: What is its residual activity for SGK2 (human) (UniProt Q9HBY8)? Entry: CCCCc1c(-c2ccc(OC)cc2)[nH]c2nccnc12
output: 116%

###

Exercise: state measured residual activity for each of the molecules provided.
- tested-on: BTK (human)
- protocol-text: radiometric filter-binding kinase assay, Kinase HotSpot
- details: compound 0.5 µM; ATP 10 µM
The response must be a number in % with no trailing unit.

input: Name the reported residual activity value associated with the molecule CN(C)S(=O)(=O)c1ccc2c(c1)/C(=C/c1cc3c([nH]1)CCCC3)C(=O)N2
output: 97.4

input: Name the reported residual activity value associated with the molecule Cn1c2ccccc2c2c3c(c4c5ccccc5n(CCC#N)c4c21)CNC3=O
output: 22

input: Name the reported residual activity value associated with the molecule COc1cc2ncnc(Nc3ccc(Oc4ccccc4)cc3)c2cc1OC
output: 38.8

input: Name the reported residual activity value associated with the molecule CN(C)CCCn1cc(C2=C(c3c[nH]c4ccccc34)C(=O)NC2=O)c2ccccc21
output: 93.8

input: Name the reported residual activity value associated with the molecule COc1ccc(C(=O)Nc2sc3c(c2C(N)=O)CCCC3)cc1OC
output: 104

input: Name the reported residual activity value associated with the molecule COc1ccc(Cl)cc1NC(=O)Nc1cc(C)nc2ccccc12
output: 102

input: Name the reported residual activity value associated with the molecule NC(=O)c1cccc(-c2cc(Nc3ccc(OC(F)(F)F)cc3)ncn2)c1
output: 99.1

input: Name the reported residual activity value associated with the molecule O=C1Nc2ccc(Br)cc2/C1=C\c1cc2c([nH]1)CCCC2
output: 90.5

###

- tested-on: UniProtKB Q9UK32
- Sequence (Q9UK32 whole entry, looked up): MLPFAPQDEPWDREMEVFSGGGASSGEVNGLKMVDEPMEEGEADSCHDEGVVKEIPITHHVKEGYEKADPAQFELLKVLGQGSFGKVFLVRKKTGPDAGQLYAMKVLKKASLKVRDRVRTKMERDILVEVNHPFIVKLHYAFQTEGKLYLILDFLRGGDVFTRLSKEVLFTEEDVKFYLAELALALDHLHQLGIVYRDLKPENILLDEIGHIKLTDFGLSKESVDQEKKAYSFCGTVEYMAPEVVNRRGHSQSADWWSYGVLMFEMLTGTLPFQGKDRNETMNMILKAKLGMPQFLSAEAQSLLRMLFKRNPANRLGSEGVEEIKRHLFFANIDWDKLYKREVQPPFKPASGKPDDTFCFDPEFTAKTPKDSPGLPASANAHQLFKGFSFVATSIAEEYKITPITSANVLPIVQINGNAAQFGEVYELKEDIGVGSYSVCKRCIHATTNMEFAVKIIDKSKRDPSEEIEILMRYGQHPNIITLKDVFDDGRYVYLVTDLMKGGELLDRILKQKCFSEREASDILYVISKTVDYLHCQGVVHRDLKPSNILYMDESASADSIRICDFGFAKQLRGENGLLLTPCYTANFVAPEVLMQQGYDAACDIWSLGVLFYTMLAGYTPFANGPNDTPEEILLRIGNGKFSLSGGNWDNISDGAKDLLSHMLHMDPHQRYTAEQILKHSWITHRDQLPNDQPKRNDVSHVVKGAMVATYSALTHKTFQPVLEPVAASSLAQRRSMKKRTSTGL
- protocol-text: radiometric filter-binding kinase assay, Kinase HotSpot
- details: compound 0.5 µM; ATP 10 µM
measured-metric: residual activity (%)
The response must be a number in % with no trailing unit.

input: Name the reported residual activity value associated with the compound Ic1cccc(CSc2nnc(-c3ccncc3)o2)c1
output: 103

input: Name the reported residual activity value associated with the compound COc1ccc(C(=O)Nc2sc3c(c2C(N)=O)CCCC3)cc1OC
output: 98.5

input: Name the reported residual activity value associated with the compound O=C1c2ccccc2-c2nc3nnnn3nc21
output: 62.3

input: Name the reported residual activity value associated with the compound O=C1C(Cl)=C(N2C(=O)CCC2=O)C(=O)c2ccccc21
output: 99.9

input: Name the reported residual activity value associated with the compound COc1cc(Nc2c(C#N)cnc3cc(OCCCN4CCN(C)CC4)c(OC)cc23)c(Cl)cc1Cl
output: 62

input: Name the reported residual activity value associated with the compound COc1ccc(S(=O)(=O)N(CCO)c2ccccc2CN(C)C/C=C/c2ccc(Cl)cc2)cc1
output: 102

input: Name the reported residual activity value associated with the compound CC(C)(C)c1cc(C=C(C#N)C#N)cc(Br)c1O
output: 101
